Target: RORγ ligand binding domain (LBD) (Homo sapiens)
Construct: made in house; host or cells: E. coli BL-21 (BL3), vector pDEST15
Sequence (P51449 269-508 limits assumed): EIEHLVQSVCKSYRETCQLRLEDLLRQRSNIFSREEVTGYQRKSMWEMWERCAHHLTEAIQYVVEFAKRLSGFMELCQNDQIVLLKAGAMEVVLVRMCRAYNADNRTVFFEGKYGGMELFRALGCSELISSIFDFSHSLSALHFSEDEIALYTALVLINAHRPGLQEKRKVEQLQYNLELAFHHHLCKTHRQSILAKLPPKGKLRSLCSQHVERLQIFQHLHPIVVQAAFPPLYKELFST
Test: TR-FRET Activity Assay (ligand sensing, RORγ-LBD / coactivator peptide interaction)
Type: biochemical
Measured Attribute: IC50

Example cases with answers are listed next.
>  <Compound>
Cc1c(S(N)(=O)=O)cc(-c2cn(S(=O)(=O)NC(C)(C)C)c3ccccc23)n1CC1CCCCC1

>  <Measured On>
RORγ ligand binding domain (LBD) (Homo sapiens)

>  <IC50>
> 2000 nM

$$$$
>  <Compound>
COCCNS(=O)(=O)c1cc(-c2cc(C(C)(C)C)cc(C(C)(C)C)c2)n(CC2CCCCC2)c1C

>  <Measured On>
RORγ ligand binding domain (LBD) (Homo sapiens)

>  <IC50>
< 500 nM

$$$$
>  <Compound>
Cc1c(S(N)(=O)=O)cc(-c2cc(C(C)(C)C)cc(C(C)(C)CO)c2)n1CC1CCCCC1

>  <Measured On>
RORγ ligand binding domain (LBD) (Homo sapiens)

>  <IC50>
> 2000 nM

$$$$
>  <Compound>
Cc1c(S(N)(=O)=O)cc(-c2cc(C(C)(C)C)cc(S(=O)(=O)N(C)C(C)(C)C)c2)n1CC1CCCCC1

>  <Measured On>
RORγ ligand binding domain (LBD) (Homo sapiens)

>  <IC50>
500 to 2000 nM

$$$$
>  <Compound>
Cc1c(S(N)(=O)=O)cc(-c2cc(C(C)(C)C)c(OCC(=O)O)c(C(C)(C)C)c2)n1CC1CCCCC1

>  <Measured On>
RORγ ligand binding domain (LBD) (Homo sapiens)

>  <IC50>
> 2000 nM

$$$$
>  <Compound>
CC(=NO)c1cc(-c2cc(S(N)(=O)=O)c(C)n2CC2CCCCC2)cc(C(C)(C)C)c1

>  <Measured On>
RORγ ligand binding domain (LBD) (Homo sapiens)

>  <IC50>
500 to 2000 nM

$$$$

Reported IC50 for CCNS(=O)(=O)c1cc(-c2cc(C(C)(C)C)cc(C(C)(C)C)c2)n(CC2CCCCC2)c1C : what is it?
< 500 nM

# query: IC50 of entry Cc1c(S(N)(=O)=O)cc(-c2cc3c(c(C(C)(C)C)c2)OCC(=O)N3C(C)C)n1CC1CCCCC1
500 to 2000 nM

What does the record list as IC50 for Cc1c(S(N)(=O)=O)cc(-c2cc(C(C)(C)C)c(OCCO)c(C(C)(C)C)c2)n1CC1CCCCC1 ?
500 to 2000 nM

Give its IC50 value. Item: Cc1c(S(N)(=O)=O)cc(-c2cc(C(C)(C)C)cc(C(C)(C)C)c2)n1CC1CCCCO1 (centres unmarked)
500 to 2000 nM

Request the reported IC50 associated with Cc1c(S(=O)(=O)NCC(C)(C)O)cc(-c2cc(C(C)(C)C)cc(C(C)(C)C)c2)n1CC1CCCCC1
< 500 nM
